- System: UACC-257 melanoma
- Assay Comment: NCI-60 one-dose screen, 48 h
- Experimental Context: 10 µM
About 83,000 compounds went through this panel and 20% of them were active in at least one assay; those are over-represented in the sample as a whole. Activity calls are given as the source filed them. The calls were made as follows: active = growth percent below 10; inactive = the rest.
// allowed return values: label 1 = active, label 0 = inactive

[[record]]
compound = "O=S(=O)(NCCCNc1nccc(-n2cnc3ccccc32)n1)c1ccc(F)cc1"
tested_system = "UACC-257 melanoma"
class_assignment = "label 0"

[[record]]
compound = "COc1cc(/C=N/n2cnc3oc(-c4ccccc4)cc3c2=N)cc(CN2CCCCC2)c1O"
tested_system = "UACC-257 melanoma"
class_assignment = "label 1"

[[record]]
compound = "O=S(=O)(Nc1cc(Cl)c(F)c(Cl)c1)c1ccc(-c2cnc(C3CC3)o2)cc1"
tested_system = "UACC-257 melanoma"
class_assignment = "label 0"

[[record]]
compound = "COc1cc(/C=C/C(=O)c2ccc(NC(=O)CSc3nnc(-c4ccc5nc(-c6ccccc6)[nH]c5c4)o3)cc2)cc(OC)c1OC"
tested_system = "UACC-257 melanoma"
class_assignment = "label 0"


State the result this test recorded for `O=C(O)CNS(=O)(=O)c1ccc(Oc2ccc(S(=O)(=O)NCC(=O)O)cc2)cc1` .
label 0

Any idea what this test logged for `CNC(=O)c1cc(Oc2ccc3nc(NC(=O)c4cccc(C(F)(F)F)c4)sc3c2)ccn1` ?
label 0

I'd appreciate the recorded outcome for `Oc1ccc(CSc2nnc(-c3ccc(Oc4ccccc4)cc3)n2-c2ccccc2)c2cccnc12` from this test.
label 1

Per the records of this test, what outcome belongs to `CCCCCCNC(=O)Oc1ccc(/C(=C(/C)c2ccccc2)c2ccc(OCCN(C)C)cc2)cc1` ?
label 1

Dear colleague, could you share the recorded outcome for Nc1nc(N)c2c(n1)NC(c1ccc(Cl)cc1)CC(c1ccc(Nc3nc(NCCO)nc(Nc4ccc(Cl)cc4)n3)cc1)=N2 (stereo unspecified) when you have a moment?
label 0

Outcome? `CCOC(=O)c1c(NCC(=O)Nc2ccc(Br)cc2)sc2c1CCCC2`
label 0

Short answer needed: outcome of this test for `CCNC(=NCCCN(C)C)N/C(N)=N/c1nc2ccccc2s1` ?
label 0

// return assay outcome for `O=C(O)c1ccc(-n2cc(CNc3ccc(Cl)cc3)c(-c3ccc(F)cc3)n2)cc1`
label 0

GET /call?item= `Oc1ccc(CSc2nnc(-c3cnccn3)n2-c2ccccc2)c2cccnc12` returns the recorded outcome of this test.
label 0

GET /call?item= `O=C(CCCCCCN1CC(=O)N2[C@@H](c3ccccc3)c3[nH]c4ccccc4c3C[C@H]2C1=O)NO` returns the recorded outcome of this test.
label 0

Record lookup: outcome of this test for `CS(=O)(=O)c1nccc(-c2c(-c3ccc(F)c(OCCc4ccccc4)c3)nc3sccn23)n1` ?
label 1

Call for entry `C=CCn1c(SCC(=O)Nc2ccc(OC)cc2)nnc1-c1ccc(Cl)cc1` :
label 0

###

- Tested on: U251 CNS
- Assay Comment: NCI-60 one-dose screen, 48 h
- Experimental Context: 10 µM unless noted
The panel holds about 83,000 compounds, 20% with a hit somewhere; the sample as a whole holds those more often. Active and inactive are the calls of the source. Rule for the calls: active = growth percent below 10; inactive = the rest.
The categories you may choose from are active, inactive

# count of solved cases: 5
[[record]]
smiles_code = "Cc1cn(-c2cc(NC(=O)c3cncc(C#Cc4cnc5ccc(O[C@H]6CCOC6)nn45)c3)cc(C(F)(F)F)c2)cn1"
class_assignment = "inactive"

[[record]]
smiles_code = "Brc1cccc(/C=N/Nc2nc(N/N=C/c3cccc(Br)c3)nc(N3CCOCC3)n2)c1"
class_assignment = "inactive"

[[record]]
smiles_code = "NCCN1CCN(c2nc(-c3ccccc3)nc3nc(-c4ccccc4)oc23)CC1"
class_assignment = "active"

[[record]]
smiles_code = "COc1cc2c3c(n(CCCNC4CCC4)c(=O)c2cc1OC)-c1cc2c(cc1C3=O)OCO2"
class_assignment = "active"

[[record]]
smiles_code = "ClC(Cl)c1nc(-c2cccs2)n2nc(-c3ccccc3)cc2n1"
class_assignment = "active"


Kindly consider the entry below.
Tell me the assay call for `CN(c1ccc(Br)cc1)S(=O)(=O)c1ccc(-c2cnc(C3CC3)o2)cc1` please.
inactive

###

- Test system: T-47D breast
- Assay Comment: NCI-60 one-dose screen, 48 h (100 = growth as untreated, 0 = no growth, -100 = all killed)
- Experimental Context: 10 µM unless noted
This is part of a sample that, as a whole, favours compounds with a hit. Of some 83,000 tested, about 20% had one in any assay.
Readout Name: growth (%)
Give bare numbers, in %.

Examples with answers:
[[record]]
compound = "CS(=O)c1nccc(-c2c(-c3ccc(F)c(OCc4ccc(F)cc4)c3)nc3sccn23)n1 (configuration not stated)"
tested_system = "T-47D breast"
readout_name = "growth"
result_number = -37.3

[[record]]
compound = "O=c1cc(-c2ccccc2)nc2sc(-c3c[nH]c4ccc(F)cc34)nn12"
tested_system = "T-47D breast"
readout_name = "growth"
result_number = 27.2

[[record]]
compound = "CNC(=O)c1cc(N2CCc3cc(NC(=O)Nc4ccc(Cl)c(Cl)c4)ccc32)ccn1"
tested_system = "T-47D breast"
readout_name = "growth"
result_number = 63.4


Give one value of growth per listed compound.
1. Oc1ccc(CSc2nnc(-c3ccc(Oc4ccccc4)cc3)o2)c2cccnc12
2. O=C1Nc2cc(OC(F)(F)F)ccc2Oc2ccc(-c3ccnc(N4CC[C@H](O)C4)c3)cc21
3. O=C(CSc1nnc(-c2cccs2)n1-c1ccccc1)Nc1ccc(F)cc1
4. CC1(C)CC[C@]2(C(=O)O)CC[C@]3(C)C(=CCC4[C@@]5(C)C[C@@H](O)[C@@H]6OC(c7cccc([N+](=O)[O-])c7)OC[C@@]6(C)C5CC[C@]43C)C2C1 (some centres not stated)

7.85
62.3
84.7
93.1

###

- Test system: MDA-MB-435 melanoma
- Assay Comment: NCI-60 one-dose screen, 48 h (100 = growth as untreated, 0 = no growth, -100 = all killed)
- Experimental Context: 10 µM unless noted
Compounds without any hit were thinned out: in the full panel of roughly 83,000, 20% have a hit.
So I've got a bunch of molecules here, and I need their growth values.
One number for each entry, in %.

[[record]]
molecule = "COc1cc(/C=N/n2cnc3oc(-c4ccccc4)cc3c2=N)cc(CN2CCCCC2)c1O"
readout_name = "growth"
result_number = -91.8

[[record]]
molecule = "CS(=O)(=O)c1nccc(-c2c(-c3ccc(F)c(OCCc4ccccc4)c3)nc3sccn23)n1"
readout_name = "growth"
result_number = 104

[[record]]
molecule = "CC(C)=CCc1c(O)c(CC=C(C)C)c2c(c1O)C(=O)C1=C[C@@H]3C[C@H]4C(C)(C)O[C@@](C/C=C(\\C)C(=O)O)(C3=O)[C@@]14O2"
readout_name = "growth"
result_number = -5.58

[[record]]
molecule = "O=C1[C@H]2Cc3c([nH]c4ccccc34)[C@@H](c3c(Cl)cccc3Cl)N2C(=O)CN1C1CCN(Cc2ccccc2)CC1"
readout_name = "growth"
result_number = 0.213


Give growth for each of the items listed below.
1. CCN(CC)c1ccc2cc(C(=O)NCCOCCOCCOCCn3cc(CCC(=O)Nc4ccc(C(=O)c5ccc(NC(=O)OC(C)(C)C)cc5)cc4)nn3)c(=O)oc2c1
2. CCN1C/C(=N\S(=O)(=O)c2ccccc2)N(CC)C1=S

1: 62.4; 2: 101

Give growth for each of the items listed below.
1. COc1ccc(Cn2cc3c(c2-c2ccccc2)CCCc2cnoc2-3)cc1[N+](=O)[O-]
2. CCNC(=O)Oc1ccc(/C(=C(/C)c2ccc(Cl)cc2)c2ccc(OCCN(C)C)cc2)cc1
3. Cc1ccc(/C=C/CC(=O)Nc2ccc(C(=O)Nc3ccc(F)cc3N)cc2)cn1

1: 1.77; 2: 91.6; 3: 47.2

Below are 3 molecules. Give each one its growth.
1. O=C(CSc1nnc(-c2ccc(Cl)cc2)n1-c1ccccc1)Nc1ccc(F)cc1
2. COc1ccc2c(c1)oc1c3[nH]c4ccccc4c3c3c(c21)C(=O)N(O)C3=O
3. CC(=O)c1ccc(NC(=O)COc2ccc(C3SCC(=O)N3c3ccc(Br)cc3)cc2)cc1 (configuration not stated)

[92.9, 53.2, 102]

###

So I've got a bunch of compounds here, and I need their growth values.
- Test system: HCC-2998 colon
- Assay Comment: NCI-60 one-dose screen, 48 h (100 = growth as untreated, 0 = no growth, -100 = all killed)
- Experimental Context: 10 µM unless noted
The panel holds about 83,000 compounds, 20% with a hit somewhere; the sample as a whole holds those more often.
Numbers only, in %.

[[record]]
compound = "Cn1nc(Nc2ccccc2)c(C(=O)NN)c1N"
reading_unit = "%"
result_number = 107

[[record]]
compound = "NS(=O)(=O)c1ccc(Nc2nc(N/N=C/c3ccc(F)cc3)nc(Nc3ccccc3)n2)cc1"
reading_unit = "%"
result_number = 55.4

[[record]]
compound = "COc1ccc(-c2ccc3c4c(cccc24)C(=O)N(N2C(=O)c4cccc5cccc(c45)C2=O)C3=O)cc1"
reading_unit = "%"
result_number = 114

[[record]]
compound = "COC(=O)c1nc(-c2ccc(C)cc2)oc1S(=O)(=O)N1CCN(c2oc(-c3ccccc3)nc2C#N)CC1"
reading_unit = "%"
result_number = 113

[[record]]
compound = "IP(CCCCCCCCCCSc1n(Cc2ccc3ccccc3c2)c(-c2ccccc2)c(-c2ccccc2)[n+]1Cc1ccc2ccccc2c1)(c1ccccc1)(c1ccccc1)c1ccccc1"
reading_unit = "%"
result_number = -86.8


// for each compound in input: emit growth
1. COc1cc2c3c(n(CCCNC4CCCC4)c(=O)c2cc1OC)-c1cc2c(cc1C3=O)OCO2
2. Cc1ccccc1NC1CC(=O)N(c2ccc(Cl)cc2Cl)C1=O (stereo not given)

23.2
109

For each of the items listed, what is its growth?
1. CCN1C(=O)N(CC)C2SC(N/N=C/c3ccc(F)cc3)=NC21 (stereo not given)
2. CSc1nccc(-c2c(-c3ccc(F)c(OCc4ccc(F)cc4)c3)nc3sccn23)n1
3. CCN(CC)CCCC(C)NCC(=O)NC(c1ccc2c(c1)OCO2)c1cc(Cl)c2cccnc2c1O (stereo not given)

1: 14.1; 2: 93.4; 3: -11.4
